Source listed as patent US20250282881A1.

Target: T1, recombinant human OX40/His fusion protein (Novoprotein, CB17) (human, UniProt P43489 29-216)
T1 construct: Bought protein
T1 sequence: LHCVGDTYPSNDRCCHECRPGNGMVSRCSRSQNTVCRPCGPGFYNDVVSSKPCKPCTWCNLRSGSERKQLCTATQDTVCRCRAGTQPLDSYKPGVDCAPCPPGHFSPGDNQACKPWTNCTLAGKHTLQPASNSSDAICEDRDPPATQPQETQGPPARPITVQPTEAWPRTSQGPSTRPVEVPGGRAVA
Assay: BLI (Octet RED96), antibody on AHC sensor, OX40/His as analyte, test group 1
measured-property: Normalized Index (off-rate ratio to EM1007-mAb044c) (%)
Provide the reading as a plain figure in %.

Check out these entries, answers already filled in.
binder	u	result
HuEM1007-044-5 (antibody, human IgG1, kappa, L234A L235A, V domains shown, Humanized anti-OX40, human IgG1 LALA / kappa) VH: EVQLVQSGAEVKKPGSSVKVSCKASGGTFSSSWMNWVRQAPGQGLEWMGRIYPGDEITNYNGKFKDRVTITADKSTSTAYMELSSLRSEDTAVYYCARDLLMPYWGQGTLVTVSS VL: DIVMTQTPLSLPVTPGEPASISCRSSKSLLYSNGITYLYWYLQKPGQSPQLLIYQMSNLAPGVPDRFSSSGSGTDFTLKISRVEAEDVGVYYCAQNLELPFTFGQGTKLEIKR	%	243
HuEM1007-044-6 (antibody, human IgG1, kappa, L234A L235A, V domains shown, Humanized anti-OX40, human IgG1 LALA / kappa) VH: EVQLVQSGAEVKKPGSSVKVSCKASGHTFSSSWMNWVRQAPGQGLEWMGRIYPGDEITNYNGKFKDRVTITADKSTSTAYMELSSLRSEDTAVYYCARDLLMPYWGQGTLVTVSS VL: DIVMTQTPLSLPVTPGEPASISCRSSKSLLYSNGITYLYWYLQKPGQSPQLLIYQMSNLAPGVPDRFSSSGSGTDFTLKISRVEAEDVGVYYCAQNLELPFTFGQGTKLEIKR	%	331
HuEM1007-044-1 (antibody, human IgG1, kappa, L234A L235A, V domains shown, Humanized anti-OX40, human IgG1 LALA / kappa) VH: EVQLVQSGAEVKKPGSSVKVSCKASGGTFSSSWMNWVRQAPGQGLEWMGRIYPGDEITNYNGKFKDRVTITADKSTSTAYMELSSLRSEDTAVYYCARDLLMPYWGQGTLVTVSS VL: DIVMTQTPLSLPVTPGEPASISCRSSKSLLYSNGITYLYWYLQKPGQSPQLLIYQMSNLAPGVPDRFSGSGSGTDFTLKISRVEAEDVGVYYCAQNLELPFTFGQGTKLEIKR	%	306
HuEM1007-044-3 (antibody, human IgG1, kappa, L234A L235A, V domains shown, Humanized anti-OX40, human IgG1 LALA / kappa) VH: EVQLVQSGAEVKKPGSSVKVSCKASGHTFSSSWMNWVRQAPGQGLEWIGRIYPGDEITNYNGKFKDRVTLTADKSTSTAYMELSSLRSEDTAVYYCARDLLMPYWGQGTLVTVSS VL: DIVMTQTPLSLPVTPGEPASISCRSSKSLLYSNGITYLYWYLQKPGQSPQLLIYQMSNLAPGVPDRFSGSGSGTDFTLKISRVEAEDVGVYYCAQNLELPFTFGQGTKLEIKR	%	255

Consider the record given below.
Short answer for HuEM1007-044-2 (antibody, human IgG1, kappa, L234A L235A, V domains shown, Humanized anti-OX40, human IgG1 LALA / kappa) VH: EVQLVQSGAEVKKPGSSVKVSCKASGHTFSSSWMNWVRQAPGQGLEWMGRIYPGDEITNYNGKFKDRVTITADKSTSTAYMELSSLRSEDTAVYYCARDLLMPYWGQGTLVTVSS VL: DIVMTQTPLSLPVTPGEPASISCRSSKSLLYSNGITYLYWYLQKPGQSPQLLIYQMSNLAPGVPDRFSGSGSGTDFTLKISRVEAEDVGVYYCAQNLELPFTFGQGTKLEIKR : Normalized Index (off-rate ratio to EM1007-mAb044c) was 281
